- ASSAYED SYSTEM: U1A M51A:E19A (UniProt P09012 10-89, E19A;M51A)
- Sequence (P09012 10-89 E19A/M51A): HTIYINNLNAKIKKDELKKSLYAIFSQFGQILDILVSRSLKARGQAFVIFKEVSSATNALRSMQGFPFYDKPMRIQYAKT
- METHOD DESCRIPTION: fluorescence polarization
Provide the reported pKd of each item.
Give bare numbers, as −log10 of the molar value.

{"columns": ["BINDER", "OBSERVED RESULT"],
 "data": [
  ["AGCUUAUCCAUUGCACCGGAUAAGCU (structured_RNA) [U1hpII RNA]", 4.80]
]}

Next:
The binder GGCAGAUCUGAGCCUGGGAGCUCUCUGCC (structured_RNA) [TAR RNA] showed pKd equal to 4.83
